Taken from the supplement of paper PMC9170038.

- Test system: MS2 coat protein
- Test: apparent KD of MS2 coat protein, switch ON state; designed switch direction (-1 OFF switch, 1 ON switch): -1; higher = weaker reporter binding
- Stated Conditions: FMN input: 0 or 200 uM; Eterna round: R93 (includes R88 designs)
Endpoint: apparent KD of MS2 coat protein (nM)

>>> recorded_value("AGUCUGAGAGGAUAUACAUGGAAAAAAAAAGUUAGAUCCCUACAUGAGGAUCACCCAUGUAGAAGGCUCUGACA [Ex2 Design 149: Sub-opt 13]")
45.8
>>> recorded_value("AAGAAACAUGAGGAUCACCCAUGUGAGGAUAUACAAAAGAAAAGAAAAGAAAGAAGAAGUAGAAGGCACAAAGG [Djedkare Shemai]")
22.5
>>> recorded_value("AAGAAGGAAGGAUAUACAUGAAAGAAAGAAAAGAAAAGAAAACAUGAGGAUCACCCAUGUAGAAGGUCCUAGAA [EteRNA is fun!]")
39.6
>>> recorded_value("AAGAAUGGAGGAUAUACAAGAAAGAAAGAAAAGAAAAGAAAACAUGAGGAUCACCCAUGUAGAAGGCCAUAGAA [EteRNA is fun!]")
24.9
